# method_summary: solvent given as SMILES
# condition_set: in CC#N
readout: emission maximum (nm)
Your answer is read as nm, so omit the unit and give the number.

molecule | units_label | emission maximum
COc1cccc(/C=C/C(=O)c2c(O)cc(C)oc2=O)c1 | nm | 500
CN(C)c1ccc(/C=C/c2ccc(-c3nc(C#N)c(C#N)n3C)cc2)cc1 | nm | 530
O=c1oc2ccccc2cc1-c1cc2ccccc2o1 | nm | 442
COC(=O)c1cc(=O)n(C)c2cc(-c3ccc4c(c3)OCO4)sc12 | nm | 482
CCCCCCN(CCCCCC)c1ccc(C#Cc2ccc(C#N)cc2)cc1 | nm | 530
CN(C)C(=O)c1ccc(-c2nc3ccc(N(C)C)cc3s2)cc1 | nm | 521

Problem: Quick one: give measured emission maximum for `COc1ccc(-c2sc3c(-c4ccc(OC)cc4)c4n(c3c2-c2ccc(OC)cc2)[B-](F)(F)[N+]2=Cc3c(-c5ccc(OC)cc5)c5sc(-c6ccc(OC)cc6)c(-c6ccc(OC)cc6)c5n3[B-](F)(F)[N+]2=C4)cc1`
Result: 641

Problem: Report emission maximum for `Cc1cc(C)c(C2=C3C=c4c(c5ccc(C(C)(C)C)cc5c5cc(C(C)(C)C)ccc45)=[N+]3[B-](F)(F)n3c2cc2c4ccc(C(C)(C)C)cc4c4cc(C(C)(C)C)ccc4c23)c(C)c1`
Result: 711

Problem: Quote emission maximum reported for `N#Cc1cc(-n2c3ccccc3c3cccnc32)c(-n2c3ccccc3c3cccnc32)cc1C#N` please.
Result: 504.42

Problem: Give the measured emission maximum for `C(=C\c1cnccn1)/c1ccc(N(c2ccccc2)c2ccccc2)cc1`
Result: 535

Problem: State, in one line, measured emission maximum of `C[n+]1ccc(/C=C/c2ccc([O-])cc2)cc1`
Result: 606

Problem: Query emission maximum for `CC1(C)CC(=O)c2c(F)c(F)cc(F)c2N1`
Result: 459

Problem: Give the measured emission maximum for `COc1ccc(-n2c3ccccc3c3cc(C=C(C#N)C#N)ccc32)cc1`
Result: 536

Problem: Return emission maximum for the following molecule: `CC(=O)[B-]1(C(C)=O)OC(c2ccccc2)=CC(c2ccccc2)=[O+]1`
Result: 400

Problem: Please give measured emission maximum of the following entry: `C(=C\c1c2ccccc2cc2ccccc12)/c1ccc2ccccc2n1`
Result: 510

Problem: For the molecule `C/C=C/c1cc(OC)cc(OC)c1` , give its measured emission maximum value.
Result: 343

Problem: Please give measured emission maximum of the following entry: `COc1ccc(-c2cc3c4c(c2)CCc2cc(-c5ccc(OC)cc5)cc(c2-4)CC3)cc1`
Result: 388.06

Problem: Hello, please tell me recorded emission maximum for this one: `CCCSc1ccc2n1[B-](F)(F)[N+]1=CC=CC1=C2c1ccccc1`
Result: 585

Problem: Quickly give me recorded emission maximum for `CN1C(=O)/C(=C/c2ccncc2)N=C1/C=C/c1ccncc1`
Result: 541

Problem: Return the recorded emission maximum value; entry: O=P1(c2ccccc2)C2=C(c3ccccc31)S(=O)(=O)c1ccccc12 (stereo not given)
Result: 465

====

# method_summary: solvent given as SMILES
# condition_set: in CC#N
The label Fulfilled is reserved for emission maximum strictly under 500 nm; Not fulfilled covers values equal to or above it.

Sample answers from the record:
molecule | group
CN(c1ccccc1)c1ccc(-c2ccc(-c3ccc(N(C)c4ccccc4)cc3)c3nc(-c4ccccc4)c(-c4ccccc4)nc23)cc1 | Not fulfilled
Cc1ccc2c(CC(=O)NN)coc2c1 | Fulfilled
N#Cc1c(N2CCCCC2)cc(-c2ccc(O)cc2)c2c1-c1cccc3cccc-2c13 | Not fulfilled

Problem: Lab note: confirm whether the reported emission maximum for this molecule is below 500 nm, equality not counting. molecule: `O=C1C=Cc2cc3ccccc3c(=O)n21`
Result: Fulfilled

Problem: Just wondering, is emission maximum of `COc1nc(Nc2ccc3c4c(cccc24)C(=O)c2ccccc2-3)nc(OC)n1` below 500 nm?
Result: Not fulfilled

====

Each entry below carries its reported emission maximum.
# method_summary: solvent given as SMILES
# condition_set: in CCO
Field: numeric (nm). Do not append units.

Problem: Give the reported emission maximum for this compound. `CCCN1C(=O)C(=CC=CC=C2Oc3ccccc3N2CCCS(=O)(=O)[O-])C(=O)N(CCC)C1=S`
Result: 579

Problem: Give me measured emission maximum, please, for this compound: `COc1ccc(-n2nc(C#N)c(N3CCCC3)n2)cc1`
Result: 415

Problem: Output emission maximum of `F[B-]1(F)OC(c2ccccc2)=Nc2sc(-c3ccccc3)n[n+]21`
Result: 409

====

The following molecules are listed with their measured emission maximum values.
# method_summary: solvent given as SMILES
# condition_set: in CO
Please respond with the number in nm and leave the unit unwritten.

molecule | recorded_number
COc1cccc(-n2c(-c3ccc(F)cc3)nc(C)c2C)c1 | 368
CCCCCCOc1ccc(-c2cnc(-c3nnc(-c4ccc(OCCCCCC)cc4)o3)o2)cc1 | 419
O=P1(c2ccccc2)C2=C(c3ccccc31)[Si](c1ccccc1)(c1ccccc1)c1cc(N(c3ccccc3)c3ccccc3)ccc12 (centres undefined) | 640
O=C1NC(=O)/C(=C\c2ccccc2O)S1 | 428
CC1(C)Cc2c(c3ccccc3c3nc4ccccc4nc23)O1 | 529.1

Problem: Quickly give me recorded emission maximum for `O=C1/C(=C\c2ccc3oc4ccccc4c3c2)S(=O)(=O)c2ccccc21`
Result: 439

Problem: State, in one line, measured emission maximum of `C(=C\c1nc2ccccc2[nH]1)/c1ccc(-c2nc3c4cccnc4c4ncccc4c3[nH]2)cc1`
Result: 452

Problem: Give emission maximum for `Cc1ccc(/C=C(\c2ccccc2)c2nc3ccccc3o2)cc1`
Result: 385

====

# method_summary: solvent given as SMILES
# condition_set: in ClC(Cl)(Cl)Cl
readout: emission maximum (nm)
Numeric answer only, unit nm assumed.

structure_as_smiles | emission maximum, nm
Cc1cc(C#Cc2ccccc2)c2ccc3c(C#Cc4ccccc4)cc(C#Cc4ccccc4)c4ccc1c2c43 | 460
COc1ccc(/C=C/C2=CC(/C=C/c3ccc(OC)cc3)=[O+][B-](F)(F)O2)cc1 | 492
COc1ccc(/C=C/C2=[O+][B-](F)(F)OC(/C=C/c3ccc(OC)cc3)=C2c2ccccc2)cc1 | 515

For the next question, use this compound.
Problem: Specify reported emission maximum for the compound shown: `O=Cc1ccc(N(c2ccc(C=O)cc2)c2ccc(-c3ccc4c(c3)C(=O)c3ccccc3C4=O)cc2)cc1`
Result: 541

====

# method_summary: solvent given as SMILES
# condition_set: in ClCCl
Item-by-item account of emission maximum
Report only the number, with the unit nm understood.

Below, 2 compounds whose answers are already recorded.
structure_as_smiles | recorded_number
CCCCN1C(=O)C(=C/C=C/C=C/C=C2N(CCCC)c3ccccc3N2CCCC)C(=O)N(CCCC)C1=S | 697
CCCCCCN(CCCCCC)c1ccc(C#Cc2ccc(C#N)cc2)cc1 | 484

Problem: Provide only the value of recorded emission maximum for `CCN(CC)c1ccc(/N=N/c2nc3ccc([N+](=O)[O-])cc3s2)cc1`
Result: 603

Problem: Determine from records and report emission maximum for `c1ccc(-c2nc(-c3ccccc3)n3ccccc23)cc1`
Result: 484

Problem: Annotate the compound `CCCc1ccc(C#Cc2ccc3nc4ccc(C#Cc5ccc(CCC)cc5)cn4c(=O)c3c2)cc1` with its measured emission maximum.
Result: 480

Problem: Output measured emission maximum for this item: `Cc1ccc2nc3cc4ccccc4cc3c(-c3ccccc3)c2c1`
Result: 521

Problem: Please report the measured emission maximum for `c1ccc2c(c1)ccc1c3ccccc3ccc21`
Result: 366

Problem: Specify measured emission maximum for `CCN1c2ccc(C3=CC(c4ccccc4)=[O+][B-](F)(F)O3)cc2Sc2cc(C3=CC(c4ccccc4)=[O+][B-](F)(F)O3)ccc21` .
Result: 639

Problem: For `COc1ccc(-c2nc3c(c4c2-c2ccccc2CC4)-c2ccccc2CC3)cc1` , write its emission maximum.
Result: 424

Problem: Fill in reported emission maximum for this entry: `CC(C)[Si]1(C(C)C)c2cc(C=C(C#N)C#N)ccc2-c2ccc(N(C)C)cc21`
Result: 644

====

# method_summary: solvent given as SMILES
# condition_set: in ClC(Cl)Cl
readout: emission maximum (nm)
All answers are understood in nm, so give the number only.

structure_as_smiles | units_label | emission maximum
CCOc1ccc2c(-c3nc(-c4cccc(C)c4)no3)cc(=O)oc2c1 | nm | 456
CCCN1c2ccccc2Sc2cc(/C=C\c3cc(=O)oc4cc(C)c(Cl)cc34)ccc21 | nm | 648
CC1(C)Cc2c(c3ccccc3c3nc4ccccc4nc23)O1 | nm | 505.05

Problem: Write down emission maximum measured for item `CCCCN1C(=O)C(=C/C=C/C=C/C=C2N(CCCC)c3ccccc3N2CCCC)C(=O)N(CCCC)C1=S`
Result: 702

Problem: Please supply the value of reported emission maximum for the item `O=c1c2ccccc2sc2ccc(-n3c4ccccc4c4ccccc43)cc12`
Result: 486.5

Problem: Please report emission maximum for the following compound: `CN(CCO)c1ccc(/C=C/C2=CC(=C(C#N)C#N)CC(C)(C)C2)cc1`
Result: 612

Problem: Give reported emission maximum value for `CCCCN1C(=O)C(=CC=C2N(CCCC)c3ccccc3N2CCCC)C(=O)N(CCCC)C1=S`
Result: 489

Problem: Look up and state reported emission maximum for `CCOC(=O)/C(C#N)=C\c1cn(-c2ccccc2)nc1-c1ccccc1`
Result: 431

Problem: Give a short answer stating reported emission maximum for `COc1ccc(-c2ncc3ccccn23)cc1` .
Result: 469

Problem: Output emission maximum of `CCNc1cc2c(cc1C)C(c1ccccc1C(=O)O)=C1CCCC(/C=C/C3=[N+](C)c4ccccc4C3(C)C)=C1O2`
Result: 722
